Molecular target: UniProt:Q03111
Sequence (Q03111 whole entry): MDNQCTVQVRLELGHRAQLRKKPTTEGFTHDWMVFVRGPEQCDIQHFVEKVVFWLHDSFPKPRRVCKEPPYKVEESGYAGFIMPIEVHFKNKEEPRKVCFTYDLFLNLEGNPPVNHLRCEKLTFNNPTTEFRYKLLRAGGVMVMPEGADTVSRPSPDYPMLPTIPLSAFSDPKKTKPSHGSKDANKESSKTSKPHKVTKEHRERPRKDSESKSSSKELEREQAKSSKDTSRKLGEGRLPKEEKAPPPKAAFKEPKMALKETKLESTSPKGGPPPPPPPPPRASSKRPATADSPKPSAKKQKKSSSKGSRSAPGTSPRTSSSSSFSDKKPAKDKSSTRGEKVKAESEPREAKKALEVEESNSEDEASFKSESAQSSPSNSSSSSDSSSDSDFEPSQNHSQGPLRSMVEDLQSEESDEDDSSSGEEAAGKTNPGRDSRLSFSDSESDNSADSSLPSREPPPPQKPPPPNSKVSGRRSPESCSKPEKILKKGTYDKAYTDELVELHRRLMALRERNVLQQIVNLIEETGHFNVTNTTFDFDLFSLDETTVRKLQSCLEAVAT
QUANTITY_MEASURED: IC50 (nM)

[a] CN1CCC[C@@H]1c1nc2ccc(NC(=O)c3ccc4c(C5CC5)nn(C)c4c3)cc2[nH]1 [US20250136592, Example 10]
[b] CN1CCC[C@@H]1c1nc2cc(NC(=O)c3ccc4c(-c5ccncc5)noc4c3)ccc2[nH]1 [US20250136592, Example 13]
Req: Kindly identify the item with the lower IC50 figure among these two: a and b Answer by stating the label of the chosen item.
Resp: a
